So I've got a bunch of compounds here, and I need their MIC values.
System: Pseudomonas aeruginosa
Test: Minimum inhibitory concentration against Pseudomonas aeruginosa UI-18
Format: functional
Conditions: Pseudomonas aeruginosa; read-out: MIC
A number alone suffices; assume µg/mL.

In plain terms, NCc1cccc(C2CN(c3nc4c(cc3F)c(=O)c(C(=O)O)cn4C3CC3)CC2N)c1 (trans isomer) has a documented MIC of 3.1

In plain terms, COc1ccccc1C1CN(c2c(F)cc3c(=O)c(C(=O)O)cn(C4CC4)c3c2F)CC1N (trans isomer) has a documented MIC of 3.1

In plain terms, NCc1cccc(C2CN(c3c(F)cc4c(=O)c(C(=O)O)cn(C5CC5)c4c3F)CC2CN)c1 (trans isomer) has a documented MIC of 6.3

In plain terms, Nc1c(F)c(N2CC(N)C(c3ccc(F)cc3)C2)c(F)c2c1c(=O)c(C(=O)O)cn2C1CC1 (trans isomer) has a documented MIC of 1.6

In plain terms, Nc1c(F)c(N2CC(N)C(c3ccc(O)cc3)C2)c(F)c2c1c(=O)c(C(=O)O)cn2C1CC1 (trans isomer) has a documented MIC of 0.8

In plain terms, NCC1CN(c2nc3c(cc2F)c(=O)c(C(=O)O)cn3C2CC2)CC1c1ccco1 (trans isomer) has a documented MIC of 0.4

In plain terms, COC(=O)c1ccc(C2CN(c3nc4c(cc3F)c(=O)c(C(=O)O)cn4C3CC3)CC2N)cc1 (trans isomer) has a documented MIC of 3.1

In plain terms, NCC1CN(c2c(F)cc3c(=O)c(C(=O)O)cn(C4CC4)c3c2F)CC1c1ccccc1 (trans isomer) has a documented MIC of 0.8

* * *

So I've got a bunch of compounds here, and I need their MIC values.
Tested on: Providencia rettgeri
Assay: Minimum inhibitory concentration against Providencia rettgeri M-1771
Assay type: functional
Conditions: Providencia rettgeri; read-out: MIC
A number alone suffices; assume µg/mL.

In plain terms, CCOC(=O)C1CC1C1CN(c2cc3c(cc2F)c(=O)c(C(=O)O)cn3C2CC2)CC1N (trans isomer) has a documented MIC of 0.8

In plain terms, NC1CN(c2c(F)cc3c(=O)c(C(=O)O)cn(C4CC4)c3c2F)CC1c1ccccc1 (trans isomer) has a documented MIC of 0.1

In plain terms, COC(=O)c1ccc(C2CN(c3nc4c(cc3F)c(=O)c(C(=O)O)cn4C3CC3)CC2N)cc1 (trans isomer) has a documented MIC of 0.8

In plain terms, NCc1cccc(C2CN(c3nc4c(cc3F)c(=O)c(C(=O)O)cn4C3CC3)CC2CN)c1 (trans isomer) has a documented MIC of 6.3

In plain terms, COc1ccc(C2CN(c3nc4c(cc3F)c(=O)c(C(=O)O)cn4C3CC3)CC2N)cc1 (trans isomer) has a documented MIC of 0.4

In plain terms, Nc1ccc(C2CN(c3nc4c(cc3F)c(=O)c(C(=O)O)cn4C3CC3)CC2N)cc1 (trans isomer) has a documented MIC of 0.4

In plain terms, Nc1c(F)c(N2CC(N)C(c3ccccc3)C2)c(F)c2c1c(=O)c(C(=O)O)cn2C1CC1 (stereo not drawn) has a documented MIC of 0.1

In plain terms, Nc1c(F)c(N2CC(N)C(c3ccc(O)cc3)C2)c(F)c2c1c(=O)c(C(=O)O)cn2C1CC1 (trans isomer) has a documented MIC of 0.1

* * *

Test system: Pseudomonas aeruginosa
Assay: Minimum inhibitory concentration against Pseudomonas aeruginosa UI-18
Type: functional
Conditions: Pseudomonas aeruginosa; read-out: MIC
Observation type: MIC (µg/mL)
A number alone suffices; assume µg/mL.

In plain terms, CCOC(=O)C1CC1C1CN(c2nc3c(cc2F)c(=O)c(C(=O)O)cn3C2CC2)CC1N (trans isomer) has a documented MIC of 2.5

In plain terms, NCC1CN(c2c(F)c(N)c3c(=O)c(C(=O)O)cn(C4CC4)c3c2F)CC1c1ccccc1 (trans isomer) has a documented MIC of 0.8

In plain terms, NC1CN(c2nc3c(cc2F)c(=O)c(C(=O)O)cn3C2CC2)CC1c1ccc(O)cc1 (trans isomer) has a documented MIC of 1.6

In plain terms, CC(C)c1ccc(C2CN(c3nc4c(cc3F)c(=O)c(C(=O)O)cn4C3CC3)CC2N)cc1 (trans isomer) has a documented MIC of 6.3

* * *

Tested on: Pseudomonas aeruginosa
Experiment: Minimum inhibitory concentration against Pseudomonas aeruginosa UI-18
Assay type: functional
Details: Pseudomonas aeruginosa; read-out: MIC
Observation type: MIC (µg/mL)
A number alone suffices; assume µg/mL.

In plain terms, Nc1c(F)c(N2CC(N)C(c3ccccc3)C2)c(F)c2c1c(=O)c(C(=O)O)cn2C1CC1 (centres undefined) has a documented MIC of 0.8

In plain terms, NCC1CN(c2c(F)c(N)c3c(=O)c(C(=O)O)cn(C4CC4)c3c2F)CC1c1ccc(N)cc1 (trans isomer) has a documented MIC of 0.8

In plain terms, NC1CN(c2c(F)cc3c(=O)c(C(=O)O)cn(C4CC4)c3c2F)CC1c1ccc(F)cc1 (trans isomer) has a documented MIC of 1.6

In plain terms, COc1ccc(C2CN(c3nc4c(cc3F)c(=O)c(C(=O)O)cn4C3CC3)CC2N)cc1 (trans isomer) has a documented MIC of 1.6

* * *

Test system: Streptococcus pneumoniae
Test: Minimum inhibitory concentration against Streptococcus pneumoniae SV-1
Type: functional
Details: Streptococcus pneumoniae; read-out: MIC
Observation type: log10(MIC) (log10 of the value in µg/mL)
A difference of one corresponds to tenfold MIC; all values are log10 with MIC in µg/mL.

In plain terms, NCc1cccc(C2CN(c3nc4c(cc3F)c(=O)c(C(=O)O)cn4C3CC3)CC2N)c1 (trans isomer) has a documented log10(MIC) of -0.70

In plain terms, COC(=O)c1ccc(C2CN(c3c(F)cc4c(=O)c(C(=O)O)cn(C5CC5)c4c3F)CC2N)cc1 (stereo not drawn) has a documented log10(MIC) of -0.40

In plain terms, NCC1CN(c2c(F)cc3c(=O)c(C(=O)O)cn(C4CC4)c3c2F)CC1c1ccco1 (stereo not drawn) has a documented log10(MIC) of -2.22

In plain terms, COc1ccc(C2CN(c3c(F)cc4c(=O)c(C(=O)O)cn(C5CC5)c4c3F)CC2N)cc1 (trans isomer) has a documented log10(MIC) of -1.30

In plain terms, COc1ccccc1C1CN(c2c(F)cc3c(=O)c(C(=O)O)cn(C4CC4)c3c2F)CC1N (trans isomer) has a documented log10(MIC) of -1.00

In plain terms, NC1CN(c2c(F)cc3c(=O)c(C(=O)O)cn(C4CC4)c3c2F)CC1c1ccc(O)cc1 (trans isomer) has a documented log10(MIC) of -1.00

In plain terms, COc1ccc(C2CN(c3nc4c(cc3F)c(=O)c(C(=O)O)cn4C3CC3)CC2N)cc1 (trans isomer) has a documented log10(MIC) of -1.00

In plain terms, NC1CN(c2nc3c(cc2F)c(=O)c(C(=O)O)cn3C2CC2)CC1c1ccc(Cl)c(Cl)c1 (trans isomer) has a documented log10(MIC) of -0.70

* * *

System: Providencia rettgeri
Assay: Minimum inhibitory concentration against Providencia rettgeri M-1771
Format: functional
Conditions: Providencia rettgeri; read-out: MIC
Observation type: MIC (µg/mL)
A number alone suffices; assume µg/mL.

In plain terms, Nc1c(F)c(N2CC(N)C(c3ccc(F)cc3)C2)c(F)c2c1c(=O)c(C(=O)O)cn2C1CC1 (trans isomer) has a documented MIC of 0.2

In plain terms, CN(C)c1ccc(C2CN(c3c(F)cc4c(=O)c(C(=O)O)cn(C5CC5)c4c3F)CC2N)cc1 (centres undefined) has a documented MIC of 0.4

In plain terms, CCOC(=O)C1CC1C1CN(c2nc3c(cc2F)c(=O)c(C(=O)O)cn3C2CC2)CC1N (trans isomer) has a documented MIC of 6.3

In plain terms, NC1CN(c2c(F)cc3c(=O)c(C(=O)O)cn(C4CC4)c3c2F)CC1c1ccc(F)cc1 (trans isomer) has a documented MIC of 0.2

* * *

Tested on: Streptococcus pneumoniae
Experiment: Minimum inhibitory concentration against Streptococcus pneumoniae SV-1
Assay type: functional
Conditions: Streptococcus pneumoniae; read-out: MIC
The threshold is 0.2 µg/mL. Values of MIC beneath it are tagged Fulfilled; values meeting or exceeding it are tagged Not fulfilled.

API: query returns whether the compound falls strictly under 0.2 µg/mL in MIC. Query: CC(C)c1ccc(C2CN(c3nc4c(cc3F)c(=O)c(C(=O)O)cn4C3CC3)CC2N)cc1 (trans isomer)
Not fulfilled

API: query returns whether the compound falls strictly under 0.2 µg/mL in MIC. Query: COC(=O)c1ccc(C2CN(c3nc4c(cc3F)c(=O)c(C(=O)O)cn4C3CC3)CC2N)cc1 (trans isomer)
Not fulfilled

API: query returns whether the compound falls strictly under 0.2 µg/mL in MIC. Query: Nc1ccc(C2CN(c3c(F)cc4c(=O)c(C(=O)O)cn(C5CC5)c4c3F)CC2N)cc1 (trans isomer)
Fulfilled

API: query returns whether the compound falls strictly under 0.2 µg/mL in MIC. Query: Nc1c(F)c(N2CC(N)C(c3ccc(O)cc3)C2)c(F)c2c1c(=O)c(C(=O)O)cn2C1CC1 (trans isomer)
Fulfilled

API: query returns whether the compound falls strictly under 0.2 µg/mL in MIC. Query: NC1CN(c2c(F)cc3c(=O)c(C(=O)O)cn(C4CC4)c3c2F)CC1c1ccc(F)cc1 (trans isomer)
Fulfilled

API: query returns whether the compound falls strictly under 0.2 µg/mL in MIC. Query: NCC1CN(c2nc3c(cc2F)c(=O)c(C(=O)O)cn3C2CC2)CC1c1ccc(N)cc1 (cis isomer)
Fulfilled
